- testName: inhibition of PEG-3 promoter activity – cell-based, HeLa, luciferase luminescence, primary screen (AID 588405)
- conditionDetails: HeLa PEG-Prom luciferase reporter, overnight, at 20 µM
In all, about 360,000 compounds went through this assay and about 6,200 (1.7%) were called active.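 Rule for the calls: active = inhibition of at least 50% at 20 µM; inactive = the rest.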 The entries come from a sample that favours actives as a whole.
Labels: true (1) = active, false (0) = inactive

compound: OC1/C(=C/c2ccc(C(F)(F)F)cc2)N2CCC1CC2 (stereo not given)
categoryLabel: false (0)

compound: CCC(C)(O)C(=O)OC1C(=O)OC2CC3C(C)=CC(=O)C(O)C3(C)C3C4(O)OCC23C1C(C)C4O (stereo not given)
categoryLabel: true (1)

compound: COc1ccc(-n2nnnc2C(c2cccc3ccccc23)N2CCC(n3c(=O)[nH]c4ccccc43)CC2)cc1 (stereo not given)
categoryLabel: true (1)

compound: CC(C)CN1Cc2cc(N3CCCCC3)ccc2-n2nncc2C1
categoryLabel: false (0)

compound: COc1cccc(C(c2nnnn2-c2ccc3c(c2)OCCO3)N2CCC3(CC2)C(=O)NCN3c2ccccc2)c1OC (stereo not given)
categoryLabel: false (0)

compound: O=C1NC(=O)N(CCc2ccc(F)cc2)C(=O)/C1=C/C=C/c1ccccc1
categoryLabel: true (1)

compound: CCCOC(=O)C1C2c3ccccc3C(c3ccccc32)C1C(=O)O (stereo not given)
categoryLabel: false (0)

compound: CC(=O)OC1C2(CC3N4C(=O)C5(CO)SSC4(CC31O)C(=O)N5C)OC(C)C(C)(C)C2=O (stereo not given)
categoryLabel: true (1)

compound: CCc1cccc2c(C#N)cn(CC(=O)N3CCOCC3)c12
categoryLabel: false (0)

compound: COC(=O)C1=C(c2ccc(F)cc2OCc2ccccc2)C[C@@H]2CC[C@H]1N2C(=O)NCc1ccc(C(C)(C)C)cc1
categoryLabel: false (0)

compound: CSCCC(c1nnnn1C(C)(C)C)N1CCC(n2c(=O)[nH]c3ccccc32)CC1 (stereo not given)
categoryLabel: false (0)

compound: CCOc1ccc(-c2cc(C)[n+](CCN(CC)CC)c(-c3ccc(OCC)cc3)c2)cc1
categoryLabel: true (1)

compound: O=C1NC(=O)N(c2ccc(F)cc2)C(=O)/C1=C/c1ccc2c(c1)CCCN2Cc1ccccc1
categoryLabel: false (0)

compound: COC(=O)C1=C(c2ccc(Cl)c(C(F)(F)F)c2)C[C@@H]2CC[C@H]1N2C(=O)NC1CC1
categoryLabel: false (0)

compound: O=C(C1CC(=O)N(C2CCCC2)C1)N1CCC2(CC1)OCCO2 (stereo not given)
categoryLabel: false (0)

compound: CCOc1ccc(CN(CCCl)CCCl)cc1C(=O)OC
categoryLabel: false (0)

compound: C[C@H]1CN([C@@H](C)CO)C(=O)CCCn2nncc2CO[C@H]1CN(C)C(=O)Oc1cccc2ccccc12
categoryLabel: false (0)

compound: COP(=O)(OC)C(NC(=O)c1ccc(C)cc1)C(Cl)(Cl)Cl (stereo not given)
categoryLabel: false (0)

compound: Cc1ccc(Cn2nnnc2CN2CCC(n3nnc4ccccc43)CC2)cc1
categoryLabel: false (0)

compound: CCOC(=O)c1c(C)c(C(=O)N2CCC3(CC2)OCCO3)c(C)n1CC
categoryLabel: false (0)
